Kindly supply the reported normalized growth values for the records listed here.
- method_description: chemical genetic growth profiling, strain panel (AID 1159580);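 note: tested at 20 µM; growth read once vehicle control cultures reached saturation at 30 °C; 1 = growth at the plate median or of vehicle wells; lower values mean less growth of the strain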
- experimental_context: S. cerevisiae deletion strains, growth OD, locus YOR144C, strain elg1, active compounds read low
Screen size: about 5,500 compounds; about 2,000 (36%) were called active. Not shown: some 18% with an inconclusive outcome. The list shows a part of the results.
Form rule: numeric answer, no unit written next to it.

// query Item "C[CH2][Hg][S]c1ccccc1C(=O)O" has what recorded normalized growth?
// result 0.0566

// query Moving on to the next molecule: "CC(=C(CCOP(=O)(O)O)SC(=O)c1ccccc1)N(C=O)Cc1cnc(C)nc1N"
// result 1.01

// query How about this molecule: "COc1cc(OC)c2c(c1)O[C@H](c1ccc(OC)c(OC)c1)[C@@H](O)C2"
// result 1

// query Would you kindly repeat that for CCC(C(N)=O)c1ccccc1 (stereo not given) ?
// result 0.997

// query Then this molecule: "C=CC(C)(C)c1c2c(c(O)c3c(=O)c4ccc(O)c(O)c4oc13)C=CC(C)(C)O2"
// result 0.983

// query Proceed to COc1cc(OC)c2c(c1)OC(c1ccc(OC)c(OC)c1)C(O)C2 (stereo not given)
// result 1.01

// query Consider next the molecule "O=C1C[C@@H](c2ccc(O)cc2)Oc2cc(O)cc(O)c21" in the same way.
// result 1.01

// query Try this molecule too: "COc1ccc(C[C@H]2NC[C@H](O)[C@H]2OC(C)=O)cc1"
// result 1.01

// query Lookup COc1ccc(CC2c3cc(OC)c(OC)cc3CCN2C)cc1OC (stereo not given)
// result 0.993

// query Also COc1ccc(C2CC(=O)c3ccc(OC)cc3O2)cc1 (stereo not given) , if possible.
// result 0.938

All figures here come from PubChem BioAssay AID1159580.
